# ASSAY_COMMENT: qHTS assay to identify small molecule antagonists of the estrogen related receptor signaling pathway with the pleiotropic PPARgamma coactivator (PGC) from Tox21 10K library - cell viability counter screen (AID 1224840); note: nearly all actives have a fitted effect of over 40% in size
# SETTINGS: PGC/ERR reporter cells viability, CellTiter-Fluor, 17.5 h; series mostly up to 92.4 µM
Records with an inconclusive call do not appear. Active and inactive are the calls of the source. Calls come from the whole dose curve; as a rule, active = well fitted cell-killing curve with a large enough effect in the repeat runs (not every such curve was filed as active); inconclusive = weak or mixed curves, or effect the other way; inactive = no such curve, though single readings can be large or run the other way.

>  <SMILES>
O=C(O)c1ccc(Cl)c(Cl)c1

>  <outcome>
inactive

$$$$
>  <SMILES>
CCCCCCCCCCCCCCCS(=O)(=O)Oc1ccccc1

>  <outcome>
inactive

$$$$
>  <SMILES>
Cc1onc(-c2ccccc2Cl)c1C(=O)N[C@@H]1C(=O)N2[C@@H]1SC(C)(C)[C@@H]2C(=O)O

>  <outcome>
inactive

$$$$
